system: MDA-MB-468 breast; assay: NCI tumour cell line growth inhibition, 48 h
measured.endpoint: GI50

Problem: Lab note: MDA-MB-468 breast assay, enter GI50 for COc1cc(OC)cc(C2C3=C(COC3=O)Nc3cc(OC)ccc32)c1 (stereo not given) here
Result: < 0.01 µM

Problem: Lab note: MDA-MB-468 breast assay, enter GI50 for Clc1ccc(-c2c3ccc(=[N+]4CCCCC4)cc-3oc3cc(N4CCCCC4)ccc23)cc1 here
Result: 0.104 µM

Problem: Lab note: MDA-MB-468 breast assay, enter GI50 for COc1cccc2cc(N(C)c3nc(C)nc4c3CCC4)ccc12 here
Result: < 0.01 µM

Problem: Lab note: MDA-MB-468 breast assay, enter GI50 for Cc1c(C#N)cccc1[C@@H](C)Nc1nnc(C)c2cnc(N3CCOCC3)cc12 here
Result: 7.63 µM

Problem: Lab note: MDA-MB-468 breast assay, enter GI50 for NC(=O)c1ccc(Oc2nccc(-c3c(-c4ccc(F)cc4)ncn3C3CCNCC3)n2)cc1 here
Result: 7.4 µM

* * *

system: MDA-MB-468 breast; assay: NCI tumour cell line growth inhibition, 48 h
*1 amine or outer side, *2 acyl side, *3 side chain or, on linkers, in order; H or OH if unused. Where a SMILES comes first, the peptide text is derived from it. [ ]: non-standard residue; d: D form. The star is where a group is joined. X11 = C/C=C/CC(C)C(O)[C@H](N[*:1])C(=O)[*:2]; Decanoyl = CCCCCCCCCC(=O)*; Leu(ol) = CC(C)C[C@H](N)CO; Iva = CC[C@](C)(N)C(=O)O; Aib = CC(C)(N)C(=O)O
measured.endpoint: TGI (µM)
Value expressed in µM; do not type the unit.

Problem: Lab note: MDA-MB-468 breast assay, enter TGI for COc1ccc2[nH]c(=O)cc(-n3ncc(C(=O)/C=C/c4cc(OC)c(OC)c(OC)c4)c3C)c2c1 here
Result: 7.3

Problem: Lab note: MDA-MB-468 breast assay, enter TGI for c1ccc(OCCC[P+](c2ccccc2)(c2ccccc2)c2ccccc2)cc1 here
Result: 1.49

Problem: Lab note: MDA-MB-468 breast assay, enter TGI for CC(=O)N1CCN(CCNC(=O)n2cc(-c3ccncc3)c(-c3cc(O)cc(Cl)c3)n2)CC1 here
Result: 20.8

Problem: Lab note: MDA-MB-468 breast assay, enter TGI for Cc1ccc(-c2nc(/C=N/Nc3cc(C)nc4ccc(Cl)cc34)c(C)o2)cc1 here
Result: 3.26

Problem: Lab note: MDA-MB-468 breast assay, enter TGI for CS(=O)(=O)Nc1cccc(-c2ccc3ncnc(Nc4ccc(F)c(Cl)c4)c3c2)c1 here
Result: 0.86

Problem: Lab note: MDA-MB-468 breast assay, enter TGI for COc1ccc(-c2nc(-c3nc4ccc(C)cc4[nH]3)cc3c2[nH]c2ccccc23)cc1 here
Result: 25

Problem: Lab note: MDA-MB-468 breast assay, enter TGI for C/C=C/CC(C)C(O)[C@H](NC(=O)[C@@H]1CCCN1C(=O)[C@](C)(CC)NC(=O)CCCCCCCCC)C(=O)N[C@@](C)(CC)C(=O)N[C@@H](CCC(N)=O)C(=O)N[C@H](CCC(N)=O)C(=O)NC(C)(C)C(=O)NC(C)(C)C(=O)N[C@@H](CCC(N)=O)C(=O)N[C@H](CC(C)C)C(=O)N[C@H](CO)CC(C)C (stereo partly drawn) (Decanoyl-[Iva]P[X11][Iva]Q[dQ][Aib][Aib]Q[dL][Leu(ol)]) here
Result: 3.38

Problem: Lab note: MDA-MB-468 breast assay, enter TGI for Cc1c(C#N)cccc1[C@@H](C)Nc1nnc(C)c2cnc(N3CCOCC3)cc12 here
Result: 38.1

Problem: Lab note: MDA-MB-468 breast assay, enter TGI for CC/C(Cc1ccccc1)=C(\c1ccc(OCCN2CCCC2)cc1)c1ccc(OC(=O)NCc2ccccc2)cc1 here
Result: 3.93
